- assay target: SPM-1 (Pseudomonas aeruginosa)
- Sequence (Q8G9Q0 entry or part of it): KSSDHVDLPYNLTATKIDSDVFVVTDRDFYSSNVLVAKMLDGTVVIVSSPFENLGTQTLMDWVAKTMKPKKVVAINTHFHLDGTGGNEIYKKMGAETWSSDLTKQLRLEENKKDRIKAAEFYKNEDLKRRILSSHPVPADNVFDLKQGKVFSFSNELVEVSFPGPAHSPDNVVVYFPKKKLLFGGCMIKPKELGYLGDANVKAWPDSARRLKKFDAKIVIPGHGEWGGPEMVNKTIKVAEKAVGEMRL
- assay comment: biochemical
- experimental conditions: concentration at which SPM-1 is inhibited by nitrocefin/nitrocefin-derived species, substrate or product inhibition
observed property: Ki (µM)
Hi! Could you send only the number? It should be in µM, unit omitted.

Item: O=C(Cc1cccs1)N[C@@H]1C(=O)N2C(C(=O)O)=C(/C=C/c3ccc([N+](=O)[O-])cc3[N+](=O)[O-])CS[C@H]12 Test system: SPM-1 (Pseudomonas aeruginosa) Read-out: Ki Value: ?
36

----------
- assay target: SPM-1 (Pseudomonas aeruginosa)
- assay comment: biochemical
- experimental conditions: apparent Ki value for substrate/product inhibition, table footnote
observed property: Ki (µM)
Give a bare numeral; the unit µM is implied.

Give its Ki value. Item: O=C(Cc1cccs1)N[C@@H]1C(=O)N2C(C(=O)O)=C(/C=C/c3ccc([N+](=O)[O-])cc3[N+](=O)[O-])CS[C@H]12
36.6
